# Test Target: T1, 4H338-bA
# T1 chain: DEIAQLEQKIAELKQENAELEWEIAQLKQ
# Assay Explanation: two-hybrid library CCNG1;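 also: natural log of median RNA to DNA barcode read ratio; higher means stronger binding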
Parameter Measured: interaction score

// known answers, use as guide
# Binder, interaction score
records = [
    ("DENAQLKQKIAELEQKIAELEWENAQLKQ [4H1828-bA]", -1.89),
    ("DENAQLEQKNAELEQKIAELEWKIAQLKQ [4H1446-bA]", -0.241),
    ("DKIAQLKQEIAELEQEIAELKWKNAQLKQ [4H2576-bA]", 0.28),
]

I. DKNAQLEQEIAELEQKIAELEWKNAQLKQ [4H3112-bA]
II. DKNAQLEQKIAELEQENAELKWEIAQLKQ [4H3354-bA]
Prompt: Please compare: I and II . Report which one has the smaller interaction score value. Refer to your chosen entry by its label in the reply.
Response: I
(I: -0.842, II: 0.149)

A. DKIAQLKQEIAELEQKNAELKWEIAQLKQ [4H2618-bA]
B. DENAQLEQENAELKQKIAELKWEIAQLEQ [4H1257-bA]
C. DKIAQLKQENAELEQKIAELKWEIAQLEQ [4H2729-bA]
Prompt: Please order the records by their reported interaction score, lowest number first. Please list the labels in the order you were asked to rank them.
Response: B, C, A
